meta.source: the Immune Epitope Database (IEDB)

biological target: HLA-A*69:01; assay: IEDB peptide-MHC binding, purified MHC/competitive/fluorescence; filed as Kd, often an IC50 or EC50 that approximates it; bounds were set here for any values at or beyond the usual limits of such assays; conditions: source organism: Plasmodium yoelii yoelii
pKd: −log10 of the molar value.
measurement.kind: pKd

>>> result("KPPRGVLLY")
"≤ 4.70"

* * *

molecular target: HLA-B*58:01; test: IEDB peptide-MHC binding, purified MHC/competitive/fluorescence; filed as Kd, often an IC50 or EC50 that approximates it; bounds were set here for any values at or beyond the usual limits of such assays; conditions: source organism: Escherichia coli str. K-12 substr. DH10B
pKd: −log10 of the molar value.
measurement.kind: pKd

>>> measured_number("QVIFKCVPK")
5.65

* * *

biological target: HLA-B*27:05; experiment: IEDB peptide-MHC binding, purified MHC/direct/fluorescence; filed as Kd, often an IC50 or EC50 that approximates it; bounds were set here for any values at or beyond the usual limits of such assays; settings: source organism: Yersinia pestis Nepal516
measurement.kind: Kd

>>> result("LSEEIGLDL")
"≥ 20 µM"

* * *

molecular target: HLA-A*24:03; experiment: IEDB peptide-MHC binding, purified MHC/competitive/fluorescence; filed as Kd, often an IC50 or EC50 that approximates it; bounds were set here for any values at or beyond the usual limits of such assays; details: source organism: Entamoeba histolytica HM-1:IMSS
pKd: −log10 of the molar value.
measurement.kind: pKd

>>> result("RSLVCLAPK")
"≤ 4.70"

* * *

biological target: HLA-A*02:01; experiment: IEDB peptide-MHC binding, purified MHC/direct/fluorescence; filed as Kd, often an IC50 or EC50 that approximates it; bounds were set here for any values at or beyond the usual limits of such assays; details: source organism: Mycobacterium tuberculosis
pKd: −log10 of the molar value.
measurement.kind: pKd

>>> measured_number("AMLAGTAVV")
8.23
>>> measured_number("GLDPTGVAV")
7.76

* * *

target: HLA-B*27:05; assay: IEDB peptide-MHC binding, purified MHC/direct/fluorescence; filed as Kd, often an IC50 or EC50 that approximates it; bounds were set here for any values at or beyond the usual limits of such assays; details: source organism: Yersinia pestis
pKd: −log10 of the molar value.
measurement.kind: pKd

>>> result("WLWVSSSDM")
"≤ 5.30"

* * *

biological target: HLA-B*27:05; test: IEDB peptide-MHC binding, purified MHC/direct/fluorescence; filed as Kd, often an IC50 or EC50 that approximates it; bounds were set here for any values at or beyond the usual limits of such assays; settings: source organism: Marburg virus - Musoke, Kenya, 1980
measurement.kind: Kd

>>> result("GEGSGARLL")
"≥ 20 µM"

* * *

target: HLA-B*08:02; assay: IEDB peptide-MHC binding, purified MHC/direct/fluorescence; filed as Kd, often an IC50 or EC50 that approximates it; bounds were set here for any values at or beyond the usual limits of such assays; conditions: source organism: Vibrio vulnificus CMCP6
measurement.kind: Kd

>>> result("ASEELMDKY")
"≥ 20 µM"
>>> result("GLKELGDWV")
"≥ 20 µM"

* * *

molecular target: HLA-B*53:01; test: IEDB peptide-MHC binding, purified MHC/competitive/radioactivity; filed as Kd, often an IC50 or EC50 that approximates it; bounds were set here for any values at or beyond the usual limits of such assays; conditions: source organism: SARS coronavirus Tor2
In this section, each of the sequences is paired with its reported Kd.
measurement.kind: Kd (µM)

>>> measured_number("FPPTSFGPLV")
4.86
>>> measured_number("FPLNSKVKVI")
1.07
>>> measured_number("APSASAFFGM")
4.11
>>> measured_number("FPNITNLCPF")
0.000782
>>> measured_number("RPLMESELVI")
0.217
